Entry source: patent US20200360391A1

# System: rats
# TEST PROTOCOL: Repeated oral administration toxicity study in rats (dose-setting basis)
# MEASUREMENT SETUP: mg/kg twice per day, oral preparation
Counter-ions that a name gives are not always drawn.
MEASUREMENT LABEL: Maximum no-observed-adverse-effect level (screening 1)

Cc1ccc(=O)n(-c2ccccc2)c1 = 50 mg/kg
CCCc1nn(C)c2c(=O)[nH]c(-c3cc(S(=O)(=O)N4CCN(C)CC4)ccc3OCC)nc12 [Compound I, Sildenafil citrate] = 30 mg/kg
O=C1CCc2cc(OCCCCc3nnnn3C3CCCCC3)ccc2N1 = 30 mg/kg
CN(C)C(=O)COC(=O)Cc1ccc(OC(=O)c2ccc(NC(=N)N)cc2)cc1 [Compound B, Camostat mesilate] = 150 mg/kg

Query :: May I ask what Maximum no-observed-adverse-effect level (screening 1) has been recorded for COC(=O)c1ccc2c(c1)NC(=O)/C2=C(\Nc1ccc(N(C)C(=O)CN2CCN(C)CC2)cc1)c1ccccc1 [Compound G, Nintedanib ethanesulfonate] ?
Result :: 5 mg/kg

---

# System: rat coronary artery complete ischemia model
# TEST PROTOCOL: Model of ischemia (MI) by rat coronary artery complete ligation (Tests 1 and 2): echocardiography, body weight
# MEASUREMENT SETUP: MI Test 2; 29 Day; B 150, G 5, I 30, C 10 mg/kg p.o. b.i.d.; B MS 100, C MS 50, I MS 30 mg/kg s.c. single injection; mean
Counter-ions that a name gives are not always drawn.
Assignment: determine reported Body weight for the given compounds.
One number for each entry, in g.

Here's what some known entries look like.
COC(=O)c1ccc2c(c1)NC(=O)/C2=C(\Nc1ccc(N(C)C(=O)CN2CCN(C)CC2)cc1)c1ccccc1 [Compound G, Nintedanib ethanesulfonate] = 311.0
O=C(O)/C=C/c1ccc(Cn2ccnc2)cc1 [Compound C, Ozagrel hydrochloride hydrate] = 310.4
CN(C)C(=O)COC(=O)Cc1ccc(OC(=O)c2ccc(NC(=N)N)cc2)cc1 [Compound B, Camostat mesilate] = 293.5

Next:
Query :: Lookup: Body weight / rat coronary artery complete ischemia model / CCCc1nn(C)c2c(=O)[nH]c(-c3cc(S(=O)(=O)N4CCN(C)CC4)ccc3OCC)nc12 [Compound I, Sildenafil citrate]
Result :: 297.5

---

# Test system: rat coronary artery complete ischemia model
# TEST PROTOCOL: Model of ischemia (MI) by rat coronary artery complete ligation (Tests 1 and 2): echocardiography, body weight
# MEASUREMENT SETUP: MI Test 2; 1 Day; B 150, G 5, I 30, C 10 mg/kg p.o. b.i.d.; B MS 100, C MS 50, I MS 30 mg/kg s.c. single injection; mean
Where a name gives a salt, the structure may show the parent alone.
MEASUREMENT LABEL: Body weight (g)
One number for each entry, in g.

Here's what some known entries look like.
CCCc1nn(C)c2c(=O)[nH]c(-c3cc(S(=O)(=O)N4CCN(C)CC4)ccc3OCC)nc12 [Compound I, Sildenafil citrate] = 240.3
O=C(O)/C=C/c1ccc(Cn2ccnc2)cc1 [Compound C, Ozagrel hydrochloride hydrate] = 240.1
COC(=O)c1ccc2c(c1)NC(=O)/C2=C(\Nc1ccc(N(C)C(=O)CN2CCN(C)CC2)cc1)c1ccccc1 [Compound G, Nintedanib ethanesulfonate] = 240.9

Next:
Query :: May I ask what Body weight has been recorded for CN(C)C(=O)COC(=O)Cc1ccc(OC(=O)c2ccc(NC(=N)N)cc2)cc1 [Compound B, Camostat mesilate] ?
Result :: 243.5
